The measurements presented in this section are drawn from patent EP0791603A2.

# TARGET SYSTEM: SSTR2 (Rattus norvegicus, UniProt P30680)
# Sequence (P30680 whole entry): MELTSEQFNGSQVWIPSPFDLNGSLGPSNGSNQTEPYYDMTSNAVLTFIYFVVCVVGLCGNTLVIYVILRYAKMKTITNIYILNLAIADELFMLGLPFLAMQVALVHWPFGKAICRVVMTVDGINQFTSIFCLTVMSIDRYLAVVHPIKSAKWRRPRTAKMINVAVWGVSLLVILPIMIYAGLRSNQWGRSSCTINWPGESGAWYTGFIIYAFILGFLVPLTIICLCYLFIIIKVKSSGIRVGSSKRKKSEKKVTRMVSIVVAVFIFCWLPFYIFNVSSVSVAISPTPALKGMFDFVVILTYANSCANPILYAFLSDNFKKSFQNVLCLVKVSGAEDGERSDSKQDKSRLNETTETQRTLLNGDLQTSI
# PROTOCOL SUMMARY: Competitive binding, displacement of [125I]Tyr11 S-14
# Set-up: expressed in transfected cells
# EXPERIMENTAL CONTEXT: calculated by Cheng and Prusoff; [125I]Tyr11 S-14 250 pM, room temperature 2 hours; read-out: SSTR2 Binding Affinity Ki
Positions of bridges follow the written chain, without caps; N, C: chain ends. Non-standard residues stand in square brackets, D forms with d. Residues, ends and D or L forms follow the SMILES beside them. Phe(4-NO2) = N[C@@H](Cc1ccc([N+](=O)[O-])cc1)C(=O)O; dPhe(4-NO2) = N[C@H](Cc1ccc([N+](=O)[O-])cc1)C(=O)O; 2Nal = N[C@@H](Cc1ccc2ccccc2c1)C(=O)O; NMeA = CN[C@@H](C)C(=O)O; Orn = NCCC[C@H](N)C(=O)O
PROPERTY NAME: Ki (nM)
Give just the number in nM; leave the unit off.

Before answering, review these 3 worked examples.
{"columns": ["COMPOUND", "Ki [nM]"],
 "data": [
  ["NCCCC[C@@H]1NC(=O)[C@@H](Cc2c[nH]c3ccccc23)NC(=O)[C@H](Cc2ccc(O)cc2)NC(=O)[C@H](NC(=O)[C@@H](N)Cc2ccc([N+](=O)[O-])cc2)CSSC[C@@H](C(=O)N[C@@H](Cc2ccc3ccccc3c2)C(N)=O)NC(=O)[C@H](CO)NC1=O (H-[Phe(4-NO2)][dC]Y[dW]KSC[2Nal]-NH2; disulfide 2-7)", 4.44],
  ["CC(=O)N[C@@H](Cc1ccc(I)cc1)C(=O)N[C@@H]1CSSC[C@@H](C(=O)N[C@H](Cc2ccc(O)cc2)C(N)=O)NC(=O)[C@H]([C@@H](C)O)NC(=O)[C@H](CCCCN)NC(=O)[C@@H](Cc2c[nH]c3ccccc23)NC(=O)[C@H](Cc2ccc(O)cc2)NC1=O", 2.8],
  ["CC(C)[C@@H]1NC(=O)[C@H](CCCCN)NC(=O)[C@@H](Cc2c[nH]c3ccccc23)NC(=O)[C@H](Cc2ccc(O)cc2)NC(=O)[C@H](NC(=O)[C@@H](N)Cc2ccc([N+](=O)[O-])cc2)CSSC[C@@H](C(=O)N(C)[C@@H](C)C(N)=O)NC1=O (H-[Phe(4-NO2)][dC]Y[dW]KVC[NMeA]-NH2; disulfide 2-7)", 24.4]
]}

Observed Ki, SSTR2 (Rattus norvegicus, UniProt P30680), CC(C)[C@@H]1NC(=O)[C@H](CCCCN)NC(=O)[C@@H](Cc2c[nH]c3ccccc23)NC(=O)[C@H](Cc2ccc(O)cc2)NC(=O)[C@H](NC(=O)[C@H](N)Cc2ccc([N+](=O)[O-])cc2)CSSC[C@@H](C(=O)N[C@@H](Cc2ccc(O)cc2)C(N)=O)NC1=O (H-[dPhe(4-NO2)][dC]Y[dW]KVCY-NH2; disulfide 2-7) : 17.3

Observed Ki, SSTR2 (Rattus norvegicus, UniProt P30680), CC(C)[C@@H]1NC(=O)[C@H](CCCN)NC(=O)[C@@H](Cc2c[nH]c3ccccc23)NC(=O)[C@H](Cc2ccc(O)cc2)NC(=O)[C@H](NC(=O)[C@@H](N)Cc2ccc([N+](=O)[O-])cc2)CSSC[C@@H](C(=O)N[C@@H](Cc2ccc(O)cc2)C(N)=O)NC1=O (H-[Phe(4-NO2)][dC]Y[dW][Orn]VCY-NH2; disulfide 2-7) : 50.2
